test: growth inhibition of DIPG glioma cells, dose response, cell-based, SU-DIPG-XIII, MIPE5.0, CellTiter-Glo, qHTS (AID 1347064); details: SU-DIPG-XIII viability, CellTiter-Glo ATP luminescence
Results filed as inconclusive are left out. Calls of active or inactive are those of the source. Cut-off not given; nearly all actives show AC50 up to about 23 µM.
Mark one answer only. Choices: active, inactive

I would be grateful if you could indicate the recorded call for `Cn1c(CCCC(=O)O)nc2cc(N(CCCl)CCCl)ccc21` .
inactive

----------
test: glucagon-like peptide 1 release enhancers, primary assay, NCI-H716 cell line, NPC library (AID 1117341); conditions: NCI-H716 cells, at 10 µM, stronger effect = higher value; further: reference of the scale not given here
Measured GLP1 secretion stimulation by item
Write the number in % without appending the unit.

Example compounds with recorded GLP1 secretion stimulation:
Record request: GLP1 secretion stimulation value, item `CC(C)(C)NC[C@H](O)c1ccc(O)cc1Cl`
5.5

May I ask what GLP1 secretion stimulation has been recorded for `O=C(O)c1ccc(=O)[nH]c1` ?
-0.3

---
What does the record list as GLP1 secretion stimulation for `Nc1ccccc1C(=O)O` ?
1.1

What value of GLP1 secretion stimulation has been recorded for this entry: `COP(=S)(OC)Oc1ccc(S(=O)(=O)N(C)C)cc1`
-1.2

Suppose we examine the compound `CN1CCN(C(=O)O[C@H]2c3nccnc3C(=O)N2c2ccc(Cl)cn2)CC1` ; what GLP1 secretion stimulation value has been reported?
-0.8

Record request: GLP1 secretion stimulation value, item CC(C)(C)NCC(O)c1ccccc1Cl (configuration not stated)
0.9

If you can, please state the reported GLP1 secretion stimulation value of `Nc1ccc(Cl)cc1C(=O)c1ccccc1F` .
21.1

State the recorded GLP1 secretion stimulation for this entry: `COC(=O)c1ccccc1C(=O)OC`
-5.4

Please give the measured GLP1 secretion stimulation for this compound: `c1ccc(C2CC2)c(OCC2=NCCN2)c1`
10.4

Any idea what its GLP1 secretion stimulation is? The compound is `C#CCN(C)[C@H](C)Cc1ccccc1`
1.9

Query: GLP1 secretion stimulation; subject: `CCOP(=S)(OCC)O/N=C(\C#N)c1ccccc1`
-1.1

Request the reported GLP1 secretion stimulation associated with `CCNc1nc(Cl)nc(NCC)n1`
1.7

----------
Listing of recorded inhibition by entry.
test: polyglutamine-triggered caspase-3 activation inhibitors, cell-based (AID 1583); conditions: polyglutamine-induced caspase-3 activation, cell assay; stronger effect = higher value;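 tested at 10 µM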
Give just the numeric value; % need not be written.

Any idea what its inhibition is? The compound is `CN1CCc2cc3c(cc2[C@H]1[C@@H]1OC(=O)c2c1ccc1c2OCO1)OCO3`
-6.49

What does the data say about its inhibition? Entry: CC(C)=CCCC1(C)C=Cc2c(O)c3c(c(CC=C(C)C)c2O1)OC12C(=CC4CC1C(C)(C)OC2(C/C=C(/C)C(=O)O)C4=O)C3=O (stereo not given)
78.5

I would be grateful if you could share the reported inhibition for CCC1(c2ccc(N)cc2)CCC(=O)NC1=O (stereo not given) .
22.4

What value of measured inhibition is listed for CN1C(=O)CCS(=O)(=O)C1c1ccc(Cl)cc1 (stereo not given) ?
11.3

Further cases:
Would you kindly share the measured inhibition for C=CCN1CC[C@]23c4c5ccc(O)c4OC2C(=O)CC[C@@]3(O)[C@H]1C5 (stereo not given in full) ?
-6.59

Need inhibition, item `Cc1cc(O)ccc1Cl`
17.2

May I ask what inhibition has been recorded for `O=C1CC[C@@]2(O)[C@H]3Cc4ccc(O)c5c4C2(CCN3CC2CC2)[C@H]1O5` ?
-9.29

// returns reported inhibition for input `c1ccc(N=Nc2ccccc2)cc1`
-11.7

What does the record list as inhibition for CCC(C)[C@H]1O[C@]2(C=C[C@@H]1C)C[C@@H]1C[C@@H](C/C=C(\C)[C@@H](OC3C[C@H](OC)C(O[C@H]4C[C@H](OC)[C@@H](O)[C@H](C)O4)[C@H](C)O3)[C@@H](C)/C=C/C=C3\CO[C@@H]4[C@H](O)C(C)=C[C@@H](C(=O)O1)[C@]34O)O2 (stereo not given in full) ?
-42.7

Which inhibition value is on record for CNC1(c2ccccc2Cl)CCCCC1=O (stereo not given) ?
12.3
